- Test system: 695427-040-R-J1-PDC complex spheroid viability
- assayNotes: Anticancer human tumor 695427-040-R-J1-PDC patient-derived colon adenocarcinoma cell line growth inhibition [RAS]
- statedConditions: curve of first compound; second compound 0.3 µM
pIC50: −log10 of the molar value.
readoutLabel: pIC50

Prompt: Name the reported pIC50 value associated with the compound NC1c2ccccc2OC12CCN(c1cnc3c(N4CCCc5ncccc54)n[nH]c3n1)CC2 (stereo unspecified) + CCn1c(-c2cc(N3CCN(C)CC3)cnc2C(C)OC)c2c3cc(ccc31)-c1csc(n1)CC(NC(=O)C1CC1C)C(=O)N1CCCC(N1)C(=O)OCC(C)(C)C2
Completion: > 7.50

Prompt: Name the reported pIC50 value associated with the compound C=CC(=O)N1CCN(c2nc(OCC3CCCN3C)nc3c(F)c(-c4nc(N)cc(C)c4C(F)(F)F)c(Cl)cc23)C(C)C1 (stereo unspecified) + CCn1c(-c2cccnc2C(C)OC)c2c3cc(ccc31)N1CCOC(CC(NC(=O)C(C(C)C)N(C)C(=O)C3(F)CCN(C(=O)C#CC(C)(C)N(C)C)CC3)C(=O)N3CCCC(N3)C(=O)OCC(C)(C)C2)C1
Completion: < 6.00

Prompt: Name the reported pIC50 value associated with the compound C[C@@H](NC(=O)c1ncnc(N)c1Cl)c1ncc(C(=O)Nc2cc(C(F)(F)F)c(Cl)cn2)s1 + CCn1c(-c2cc(N3CCN(C)CC3)cnc2C(C)OC)c2c3cc(ccc31)-c1csc(n1)CC(NC(=O)C1CC1C)C(=O)N1CCCC(N1)C(=O)OCC(C)(C)C2
Completion: > 7.50

Prompt: Name the reported pIC50 value associated with the compound CC(=O)OC12COC1CC(O)C1(C)C(=O)C(O)C3=C(C)C(OC(=O)C(O)C(NC(=O)OC(C)(C)C)c4ccccc4)CC(O)(C(OC(=O)c4ccccc4)C21)C3(C)C (stereo unspecified) + CCn1c(-c2cc(N3CCN(C)CC3)cnc2C(C)OC)c2c3cc(ccc31)-c1csc(n1)CC(NC(=O)C1CC1C)C(=O)N1CCCC(N1)C(=O)OCC(C)(C)C2
Completion: > 7.50

Prompt: Name the reported pIC50 value associated with the compound CCC(CC)c1cc(NC2CCC(N)C2)n2nccc2n1 (stereo unspecified) + CCn1c(-c2cc(N3CCN(C)CC3)cnc2C(C)OC)c2c3cc(ccc31)-c1csc(n1)CC(NC(=O)C1CC1C)C(=O)N1CCCC(N1)C(=O)OCC(C)(C)C2
Completion: > 7.50

Prompt: Name the reported pIC50 value associated with the compound CC1(C)CCC(Nc2ncc(C(F)(F)F)c(-c3c[nH]c4c(P(C)(C)=O)c(C#N)ccc34)n2)CN1 (stereo unspecified) + CCn1c(-c2cc(N3CCN(C)CC3)cnc2C(C)OC)c2c3cc(ccc31)-c1csc(n1)CC(NC(=O)C1CC1C)C(=O)N1CCCC(N1)C(=O)OCC(C)(C)C2
Completion: > 9.02

Prompt: Name the reported pIC50 value associated with the compound C=CC(=O)Nc1cc(Nc2nccc(-c3cn(C)c4ccccc34)n2)c(OC)cc1N(C)CCN(C)C + CCn1c(-c2cc(N3CCN(C)CC3)cnc2C(C)OC)c2c3cc(ccc31)-c1csc(n1)CC(NC(=O)C1CC1C)C(=O)N1CCCC(N1)C(=O)OCC(C)(C)C2
Completion: > 8.50

Prompt: Name the reported pIC50 value associated with the compound O=C(c1ccc(F)c(F)c1Nc1ccc(I)cc1F)N1CC(O)([C@@H]2CCCCN2)C1 + CCn1c(-c2cc(N3CCN(C)CC3)cnc2C(C)OC)c2c3cc(ccc31)-c1csc(n1)CC(NC(=O)C1CC1C)C(=O)N1CCCC(N1)C(=O)OCC(C)(C)C2
Completion: > 8.50

Prompt: Name the reported pIC50 value associated with the compound Nc1ccn(C2OC(CO)C(O)C2(F)F)c(=O)n1 (stereo unspecified) + CCn1c(-c2cc(N3CCN(C)CC3)cnc2C(C)OC)c2c3cc(ccc31)-c1csc(n1)CC(NC(=O)C1CC1C)C(=O)N1CCCC(N1)C(=O)OCC(C)(C)C2
Completion: > 8.50

Prompt: Name the reported pIC50 value associated with the compound Nc1ccn(C2OC(CO)C(O)C2(F)F)c(=O)n1 (stereo unspecified) + CCn1c(-c2cccnc2C(C)OC)c2c3cc(ccc31)N1CCOC(CC(NC(=O)C(C(C)C)N(C)C(=O)C3(F)CCN(C(=O)C#CC(C)(C)N(C)C)CC3)C(=O)N3CCCC(N3)C(=O)OCC(C)(C)C2)C1
Completion: < 6.00

Prompt: Name the reported pIC50 value associated with the compound CCc1c2c(nc3ccc(O)cc13)-c1cc3c(c(=O)n1C2)COC(=O)[C@]3(O)CC + CCn1c(-c2cc(N3CCN(C)CC3)cnc2C(C)OC)c2c3cc(ccc31)-c1csc(n1)CC(NC(=O)C1CC1C)C(=O)N1CCCC(N1)C(=O)OCC(C)(C)C2
Completion: > 9.02

----------
- System: 695427-040-R-J1-PDC complex spheroid viability
- assayNotes: Anticancer human tumor 695427-040-R-J1-PDC cell line growth inhibition [RAS];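 note: viability read after seven days of drug exposure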
- statedConditions: curve of first compound; second compound 0.01 µM
readoutLabel: IC50

Prompt: Name the reported IC50 value associated with the molecule CCN1CCN(Cc2ccc(Nc3ncc(F)c(-c4cc(F)c5nc(C)n(C(C)C)c5c4)n3)nc2)CC1 + C=CC(=O)N1CCN(c2nc(OCC3CCCN3C)nc3c(F)c(-c4nc(N)cc(C)c4C(F)(F)F)c(Cl)cc23)C(C)C1
Completion: > 1 µM

Prompt: Name the reported IC50 value associated with the molecule CC(C)NCC(C(=O)N1CCN(c2ncnc3c2C(C)CC3O)CC1)c1ccc(Cl)cc1 (centres undefined) + C=CC(=O)N1CCN(c2nc(OCC3CCCN3C)nc3c(F)c(-c4nc(N)cc(C)c4C(F)(F)F)c(Cl)cc23)C(C)C1
Completion: > 10 µM

Prompt: Name the reported IC50 value associated with the molecule Cc1nc(N2CCC3(CC2)COC(C)C3N)c(CO)nc1Sc1ccnc(N)c1Cl (centres undefined) + C=CC(=O)N1CCN(c2nc(OCC3CCCN3C)nc3c(F)c(-c4nc(N)cc(C)c4C(F)(F)F)c(Cl)cc23)C(C)C1
Completion: > 10 µM

Prompt: Name the reported IC50 value associated with the molecule CC1(C)CCC(Nc2ncc(C(F)(F)F)c(-c3c[nH]c4c(P(C)(C)=O)c(C#N)ccc34)n2)CN1 (centres undefined) + C=CC(=O)N1CCN(c2nc(OCC3CCCN3C)nc3c(F)c(-c4nc(N)cc(C)c4C(F)(F)F)c(Cl)cc23)C(C)C1
Completion: > 0.3 µM

Prompt: Name the reported IC50 value associated with the molecule CC(C)n1nc(-c2ccc3oc(N)nc3c2)c2c(N)ncnc21 + C=CC(=O)N1CCN(c2nc(OCC3CCCN3C)nc3c(F)c(-c4nc(N)cc(C)c4C(F)(F)F)c(Cl)cc23)C(C)C1
Completion: > 0.1 µM

Prompt: Name the reported IC50 value associated with the molecule C[C@@H](NC(=O)c1ncnc(N)c1Cl)c1ncc(C(=O)Nc2cc(C(F)(F)F)c(Cl)cn2)s1 + C=CC(=O)N1CCN(c2nc(OCC3CCCN3C)nc3c(F)c(-c4nc(N)cc(C)c4C(F)(F)F)c(Cl)cc23)C(C)C1
Completion: > 10 µM

Prompt: Name the reported IC50 value associated with the molecule Nc1ccn(C2OC(CO)C(O)C2(F)F)c(=O)n1 (centres undefined) + C=CC(=O)N1CCN(c2nc(OCC3CCCN3C)nc3c(F)c(-c4nc(N)cc(C)c4C(F)(F)F)c(Cl)cc23)C(C)C1
Completion: > 1 µM

Prompt: Name the reported IC50 value associated with the molecule CC(=O)OC12COC1CC(O)C1(C)C(=O)C(O)C3=C(C)C(OC(=O)C(O)C(NC(=O)OC(C)(C)C)c4ccccc4)CC(O)(C(OC(=O)c4ccccc4)C21)C3(C)C (centres undefined) + C=CC(=O)N1CCN(c2nc(OCC3CCCN3C)nc3c(F)c(-c4nc(N)cc(C)c4C(F)(F)F)c(Cl)cc23)C(C)C1
Completion: > 10 µM

Prompt: Name the reported IC50 value associated with the molecule CC1(O)CCCC1n1c(=O)c(C(F)F)cc2cnc(NC3CCN(S(C)(=O)=O)CC3)nc21 (centres undefined) + C=CC(=O)N1CCN(c2nc(OCC3CCCN3C)nc3c(F)c(-c4nc(N)cc(C)c4C(F)(F)F)c(Cl)cc23)C(C)C1
Completion: > 10 µM

----------
- System: 695427-040-R-J1-PDC complex spheroid viability
- assayNotes: Anticancer human tumor 695427-040-R-J1-PDC cell line growth inhibition [RAS];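 note: viability read after seven days of drug exposure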
- statedConditions: curve of first compound; second compound 0.03 µM
pIC50: −log10 of the molar value.
readoutLabel: pIC50

Prompt: Name the reported pIC50 value associated with the compound Cc1nc(N2CCC3(CC2)COC(C)C3N)c(CO)nc1Sc1ccnc(N)c1Cl (configuration not stated) + CCn1c(-c2cccnc2C(C)OC)c2c3cc(ccc31)N1CCOC(CC(NC(=O)C(C(C)C)N(C)C(=O)C3(F)CCN(C(=O)C#CC(C)(C)N(C)C)CC3)C(=O)N3CCCC(N3)C(=O)OCC(C)(C)C2)C1
Completion: < 5.00

Prompt: Name the reported pIC50 value associated with the compound CC1(C)CCC(Nc2ncc(C(F)(F)F)c(-c3c[nH]c4c(P(C)(C)=O)c(C#N)ccc34)n2)CN1 (configuration not stated) + CCn1c(-c2cc(N3CCN(C)CC3)cnc2C(C)OC)c2c3cc(ccc31)-c1csc(n1)CC(NC(=O)C1CC1C)C(=O)N1CCCC(N1)C(=O)OCC(C)(C)C2
Completion: < 6.52

Prompt: Name the reported pIC50 value associated with the compound CC1(O)CCCC1n1c(=O)c(C(F)F)cc2cnc(NC3CCN(S(C)(=O)=O)CC3)nc21 (configuration not stated) + CCn1c(-c2cccnc2C(C)OC)c2c3cc(ccc31)N1CCOC(CC(NC(=O)C(C(C)C)N(C)C(=O)C3(F)CCN(C(=O)C#CC(C)(C)N(C)C)CC3)C(=O)N3CCCC(N3)C(=O)OCC(C)(C)C2)C1
Completion: < 5.00

Prompt: Name the reported pIC50 value associated with the compound CC1(C)CCC(Nc2ncc(C(F)(F)F)c(-c3c[nH]c4c(P(C)(C)=O)c(C#N)ccc34)n2)CN1 (configuration not stated) + CCn1c(-c2cccnc2C(C)OC)c2c3cc(ccc31)N1CCOC(CC(NC(=O)C(C(C)C)N(C)C(=O)C3(F)CCN(C(=O)C#CC(C)(C)N(C)C)CC3)C(=O)N3CCCC(N3)C(=O)OCC(C)(C)C2)C1
Completion: < 6.52

Prompt: Name the reported pIC50 value associated with the compound CC(=O)OC12COC1CC(O)C1(C)C(=O)C(O)C3=C(C)C(OC(=O)C(O)C(NC(=O)OC(C)(C)C)c4ccccc4)CC(O)(C(OC(=O)c4ccccc4)C21)C3(C)C (configuration not stated) + CCn1c(-c2cccnc2C(C)OC)c2c3cc(ccc31)N1CCOC(CC(NC(=O)C(C(C)C)N(C)C(=O)C3(F)CCN(C(=O)C#CC(C)(C)N(C)C)CC3)C(=O)N3CCCC(N3)C(=O)OCC(C)(C)C2)C1
Completion: < 5.00

Prompt: Name the reported pIC50 value associated with the compound CC(C)NCC(C(=O)N1CCN(c2ncnc3c2C(C)CC3O)CC1)c1ccc(Cl)cc1 (configuration not stated) + CCn1c(-c2cccnc2C(C)OC)c2c3cc(ccc31)N1CCOC(CC(NC(=O)C(C(C)C)N(C)C(=O)C3(F)CCN(C(=O)C#CC(C)(C)N(C)C)CC3)C(=O)N3CCCC(N3)C(=O)OCC(C)(C)C2)C1
Completion: < 5.00

Prompt: Name the reported pIC50 value associated with the compound C[C@@H](NC(=O)c1ncnc(N)c1Cl)c1ncc(C(=O)Nc2cc(C(F)(F)F)c(Cl)cn2)s1 + CCn1c(-c2cccnc2C(C)OC)c2c3cc(ccc31)N1CCOC(CC(NC(=O)C(C(C)C)N(C)C(=O)C3(F)CCN(C(=O)C#CC(C)(C)N(C)C)CC3)C(=O)N3CCCC(N3)C(=O)OCC(C)(C)C2)C1
Completion: < 5.00
